# Read-out: Tissue plasminogen activator (tPA), PLAT (gene 5327)
# testMethodNotes: BSK_BE3C_tPA: BioMAP Diversity Plus: BE3C Assay for Tissue plasminogen activator (tPA) Biomarker Activity (AID 2283041);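 on outcome: tPA level quantified by ELISA one day after compound addition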
# studyConditions: primary human bronchial epithelial cells; actives raise or lower the signal
The source made the active and inactive calls. How the source made its calls: active means hit-call score of the fitted dose curve at least 0.9, where 1 is the maximum; inactive means score below 0.9.
Please answer using one outcome listed in T for active, F for inactive

{"columns": ["givenSmiles", "categoryLabel"],
 "data": [
  ["C[Si]1(C)O[Si](C)(C)O[Si](C)(C)O[Si](C)(C)O1", "F"],
  ["CC1(C)NC(=O)NC1=O", "F"],
  ["CN1CCN(Cc2cc(-c3ccc4[nH]c(=O)oc4c3)co2)[C@@H](c2ccc(F)cc2)C1", "T"],
  ["Cc1ccc2ncccc2c1", "F"],
  ["COc1cc(S(=O)(=O)O)c(C)cc1N=Nc1c(O)ccc2cc(S(=O)(=O)O)ccc12", "F"],
  ["FC(F)(F)C(F)(F)C(F)(F)C(F)(F)C(F)(F)C(F)(F)CCI", "F"],
  ["Nc1ccccc1N", "F"],
  ["NCCO", "F"],
  ["CC(C)(C)c1cc(O)c(C(C)(C)C)cc1O", "T"],
  ["NS(=O)(=O)c1cc2c(cc1Cl)NCNS2(=O)=O", "F"]
]}

Task: Tell me the assay call for CC=Cc1ccc(O)c(OC)c1 please.
Result: F
